Molecular target: UGT1A1 (Homo sapiens)
assay.readout: IC50 (µM)
Use µM as the unit, but write only the number.

// sample COc1cc2cc(c1Cl)N(C)C(=O)CC(OC(=O)C(C)N(C)C(=O)CCS)C1(C)OC1C(C)C1CC(O)(NC(=O)O1)C(OC)C=CC=C(C)C2 (stereo not shown) [mertansine, Mertansine] , its IC50 was 16.2

* * *

Molecular target: UGT1A3 (Homo sapiens, UniProt P35503)
Sequence (P35503 29-534): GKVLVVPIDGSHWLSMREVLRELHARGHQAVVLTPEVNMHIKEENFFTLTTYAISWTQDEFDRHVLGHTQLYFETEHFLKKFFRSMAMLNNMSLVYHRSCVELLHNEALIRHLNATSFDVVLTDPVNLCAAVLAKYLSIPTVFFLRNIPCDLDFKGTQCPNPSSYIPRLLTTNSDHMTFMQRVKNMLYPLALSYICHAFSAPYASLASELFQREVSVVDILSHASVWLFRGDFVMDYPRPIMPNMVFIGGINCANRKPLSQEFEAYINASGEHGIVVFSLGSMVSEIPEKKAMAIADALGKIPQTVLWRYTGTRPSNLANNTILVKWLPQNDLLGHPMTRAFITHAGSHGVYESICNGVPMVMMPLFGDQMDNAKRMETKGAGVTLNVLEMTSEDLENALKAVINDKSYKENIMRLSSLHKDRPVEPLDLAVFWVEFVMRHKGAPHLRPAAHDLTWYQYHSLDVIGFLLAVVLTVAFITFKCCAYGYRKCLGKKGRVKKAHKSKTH
assay.readout: pKi
Value format note: pKi is -log10 of concentration (mol/L); just state the number.

COc1cc2cc(c1Cl)N(C)C(=O)CC(OC(=O)C(C)N(C)C(=O)CCS)C1(C)OC1C(C)C1CC(O)(NC(=O)O1)C(OC)C=CC=C(C)C2 (stereo not shown) tested on UGT1A3 (Homo sapiens, UniProt P35503) gave pKi: 5.37

* * *

Tested on: CYP2C8 mRNA
Assay: CYP2C8 mRNA level in human hepatocytes after 48 h treatment (RT-PCR)
Settings: plated cryopreserved human hepatocytes, IC50, suppression of CYP2C8 mRNA expression, Mean ± SD of three human hepatocyte lots, 48 h, 1.25–2500 nM
assay.readout: IC50 at 48 h (nM)
Lab book: enter the figure in nM, no units written.

Item: COc1cc2cc(c1Cl)N(C)C(=O)CC(OC(=O)C(C)N(C)C(=O)CCS)C1(C)OC1C(C)C1CC(O)(NC(=O)O1)C(OC)C=CC=C(C)C2 (stereo not shown) | IC50 at 48 h: 32.1

* * *

Biological target: UGT1A1 (Homo sapiens, UniProt P22309)
Construct: ultrapooled human liver microsomes (0.2 mg/mL); from tissue; host or cells: human liver microsomes (ultrapooled)
Sequence (P22309 26-533): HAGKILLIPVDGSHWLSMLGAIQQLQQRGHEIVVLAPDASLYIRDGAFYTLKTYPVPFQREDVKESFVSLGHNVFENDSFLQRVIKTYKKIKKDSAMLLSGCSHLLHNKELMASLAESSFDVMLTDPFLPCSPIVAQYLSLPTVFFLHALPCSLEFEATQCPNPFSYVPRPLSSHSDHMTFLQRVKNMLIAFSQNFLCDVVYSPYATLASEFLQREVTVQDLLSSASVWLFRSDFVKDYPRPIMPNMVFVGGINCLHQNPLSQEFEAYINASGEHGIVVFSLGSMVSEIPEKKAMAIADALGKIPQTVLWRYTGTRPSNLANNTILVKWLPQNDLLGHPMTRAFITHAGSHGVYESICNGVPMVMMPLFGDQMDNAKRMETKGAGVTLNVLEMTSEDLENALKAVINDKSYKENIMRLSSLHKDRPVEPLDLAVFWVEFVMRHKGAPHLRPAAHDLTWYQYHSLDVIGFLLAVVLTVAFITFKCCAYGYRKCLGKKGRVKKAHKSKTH
Assay: Inhibition of UGT1A1-catalyzed SN-38 glucuronidation in ultrapooled human liver microsomes
Type: in vitro ADME
Settings: human liver microsomes, SN-38 0.2–2 µM
assay.readout: pKi
Please report pKi as the negative decimal logarithm of the molar concentration, giving only the number.

Fill in: UGT1A1 (Homo sapiens, UniProt P22309) pKi for COc1cc2cc(c1Cl)N(C)C(=O)CC(OC(=O)C(C)N(C)C(=O)CCS)C1(C)OC1C(C)C1CC(O)(NC(=O)O1)C(OC)C=CC=C(C)C2 (stereo not shown) = 4.87

* * *

System: UGT1A9 mRNA
Test: UGT1A9 mRNA level in human hepatocytes after 48 h treatment (RT-PCR)
Conditions: plated cryopreserved human hepatocytes, IC50, suppression of UGT1A9 mRNA expression, human hepatocytes Lot 361, 48 h, 1.25–2500 nM
assay.readout: IC50 at 48 h (nM)
Report the figure in nM without appending any unit label.

What the record says about COc1cc2cc(c1Cl)N(C)C(=O)CC(OC(=O)C(C)N(C)C(=O)CCS)C1(C)OC1C(C)C1CC(O)(NC(=O)O1)C(OC)C=CC=C(C)C2 (stereo not shown) [mertansine, Mertansine] : IC50 at 48 h is 44.1

* * *

Tested on: CYP3A4 mRNA
Assay: in vitro
Conditions: human, hepatocytes, IC50, suppression of CYP3A4 mRNA expression, human hepatocytes Lot 319, 48 h, 1.25–2500 nM
assay.readout: pIC50
Lab note — pIC50 values are minus log10 of concentrations in M.

Documented pIC50 of COc1cc2cc(c1Cl)N(C)C(=O)CC(OC(=O)C(C)N(C)C(=O)CCS)C1(C)OC1C(C)C1CC(O)(NC(=O)O1)C(OC)C=CC=C(C)C2 (stereo not shown) [mertansine, Mertansine] : 6.46

* * *

Test system: CYP3A4 mRNA
Test: in vitro
Details: human, hepatocytes, IC50, suppression of CYP3A4 mRNA expression, human hepatocytes Lot 361, 48 h, 1.25–2500 nM
assay.readout: pIC50
Schema: pIC50 number; meaning minus log10 of the concentration expressed in molar units.

Reading of pIC50 for COc1cc2cc(c1Cl)N(C)C(=O)CC(OC(=O)C(C)N(C)C(=O)CCS)C1(C)OC1C(C)C1CC(O)(NC(=O)O1)C(OC)C=CC=C(C)C2 (stereo not shown) with CYP3A4 mRNA: 7.77

* * *

Target: UGT1A4 (Homo sapiens)
Sequence (P22310 29-534): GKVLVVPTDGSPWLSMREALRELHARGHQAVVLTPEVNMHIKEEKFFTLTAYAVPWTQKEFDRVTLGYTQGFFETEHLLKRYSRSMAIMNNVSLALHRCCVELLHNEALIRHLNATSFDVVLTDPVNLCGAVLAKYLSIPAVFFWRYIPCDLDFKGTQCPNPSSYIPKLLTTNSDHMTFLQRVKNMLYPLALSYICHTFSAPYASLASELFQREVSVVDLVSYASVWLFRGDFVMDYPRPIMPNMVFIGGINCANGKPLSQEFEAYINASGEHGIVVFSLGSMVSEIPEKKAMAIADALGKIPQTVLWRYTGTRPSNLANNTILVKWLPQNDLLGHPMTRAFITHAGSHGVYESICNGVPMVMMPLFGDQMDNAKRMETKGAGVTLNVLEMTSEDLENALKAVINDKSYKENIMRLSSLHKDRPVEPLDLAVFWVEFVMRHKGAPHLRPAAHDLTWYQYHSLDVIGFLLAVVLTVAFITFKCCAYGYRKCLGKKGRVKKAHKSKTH
assay.readout: Ki (µM)
Express the result in µM but write the number alone.

Measured Ki (UGT1A4 (Homo sapiens)), entry COc1cc2cc(c1Cl)N(C)C(=O)CC(OC(=O)C(C)N(C)C(=O)CCS)C1(C)OC1C(C)C1CC(O)(NC(=O)O1)C(OC)C=CC=C(C)C2 (stereo not shown) : 21.2

* * *

Tested on: UGT1A4 mRNA
Test: UGT1A4 mRNA level in human hepatocytes after 48 h treatment (RT-PCR)
Conditions: human
assay.readout: IC50 at 48 h

For this compound ( COc1cc2cc(c1Cl)N(C)C(=O)CC(OC(=O)C(C)N(C)C(=O)CCS)C1(C)OC1C(C)C1CC(O)(NC(=O)O1)C(OC)C=CC=C(C)C2 (stereo not shown) ), measured IC50 at 48 h is > 2500 nM

* * *

System: CYP2C19 mRNA
Test: CYP2C19 mRNA level in human hepatocytes after 48 h treatment (RT-PCR)
Conditions: plated cryopreserved human hepatocytes, IC50, suppression of CYP2C19 mRNA expression, human hepatocytes Lot 319, 48 h, 1.25–2500 nM
assay.readout: IC50 at 48 h (nM)
Write the answer as a number in nM, unit excluded.

compound COc1cc2cc(c1Cl)N(C)C(=O)CC(OC(=O)C(C)N(C)C(=O)CCS)C1(C)OC1C(C)C1CC(O)(NC(=O)O1)C(OC)C=CC=C(C)C2 (stereo not shown) [mertansine, Mertansine] , IC50 at 48 h observed: 574

* * *

Tested on: UGT1A1 mRNA
Experiment: UGT1A1 mRNA level in human hepatocytes after 48 h treatment (RT-PCR)
Conditions: human, IC50, suppression of UGT1A1 mRNA expression, human hepatocytes Lot 321, 48 h, 1.25–2500 nM
assay.readout: IC50 at 48 h (nM)
Write the number in nM without appending the unit.

Reported IC50 at 48 h for COc1cc2cc(c1Cl)N(C)C(=O)CC(OC(=O)C(C)N(C)C(=O)CCS)C1(C)OC1C(C)C1CC(O)(NC(=O)O1)C(OC)C=CC=C(C)C2 (stereo not shown) was 113

* * *

Test system: UGT1A4 mRNA
Assay: UGT1A4 mRNA level in human hepatocytes after 48 h treatment (RT-PCR)
Conditions: read-out: IC50, suppression of UGT1A4 mRNA expression; human hepatocytes Lot 321, 48 h, 1.25–2500 nM
pIC50: −log10 of the molar value.
assay.readout: pIC50

Form field pIC50, entry COc1cc2cc(c1Cl)N(C)C(=O)CC(OC(=O)C(C)N(C)C(=O)CCS)C1(C)OC1C(C)C1CC(O)(NC(=O)O1)C(OC)C=CC=C(C)C2 (stereo not shown) [mertansine, Mertansine] : < 5.60

* * *

Test system: CYP2C9 mRNA
Experiment: CYP2C9 mRNA level in human hepatocytes after 48 h treatment (RT-PCR)
Details: plated cryopreserved human hepatocytes, IC50, suppression of CYP2C9 mRNA expression, human hepatocytes Lot 361, 48 h, 1.25–2500 nM
assay.readout: IC50 at 48 h
Please report the result as a number followed by the unit.

The compound COc1cc2cc(c1Cl)N(C)C(=O)CC(OC(=O)C(C)N(C)C(=O)CCS)C1(C)OC1C(C)C1CC(O)(NC(=O)O1)C(OC)C=CC=C(C)C2 (stereo not shown) , tested on CYP2C9 mRNA, showed IC50 at 48 h of 59.6 nM

* * *

Test system: CYP1A2 mRNA (suppression of expression)
Assay: CYP1A2 mRNA level in human hepatocytes after 48 h treatment (RT-PCR)
Assay type: cell-based
Settings: human hepatocytes Lot 319, 48 h, 1.25–2500 nM
assay.readout: IC50 at 48 h (nM)
Use nM as the unit, but write only the number.

Field IC50 at 48 h (system: CYP1A2 mRNA (suppression of expression)) for entry COc1cc2cc(c1Cl)N(C)C(=O)CC(OC(=O)C(C)N(C)C(=O)CCS)C1(C)OC1C(C)C1CC(O)(NC(=O)O1)C(OC)C=CC=C(C)C2 (stereo not shown) [mertansine, Mertansine] = 220
